Test: Cmax in healthy human plasma at loading dose of 400 mg/day, po once daily for 3 days measured after 1 day
Assay type: ADME, organism-based
Design: dose 400 mg/day, route oral
readout: Cmax (ng/mL)
A number alone suffices; assume ng/mL.

Problem: What measured Cmax goes with CC[C@H]1OC(=O)[C@H](C)C(=O)[C@H](C)[C@@H](O[C@@H]2O[C@H](C)C[C@H](N(C)C)[C@H]2O)[C@@]2(C)C[C@@H](C)/C(=N\C(C)=O)[C@H](C)[C@@H](OC/C(=N\OCc3ccc(-n4cccn4)nc3)CO2)[C@]1(C)O [MODITHROMYCIN] ?
Result: 548

----------
Assay: Tmax in high-fat fed healthy human plasma at 200 mg, po administered as single dose of two-100 mg capsules
Format: ADME, organism-based
readout: Tmax
Include the unit after the number when you answer.

Problem: What measured Tmax goes with CC[C@H]1OC(=O)[C@H](C)C(=O)[C@H](C)[C@@H](O[C@@H]2O[C@H](C)C[C@H](N(C)C)[C@H]2O)[C@@]2(C)C[C@@H](C)/C(=N\C(C)=O)[C@H](C)[C@@H](OC/C(=N\OCc3ccc(-n4cccn4)nc3)CO2)[C@]1(C)O ?
Result: 4 h
